assay: Inhibition of alpha-glucosidase (unknown origin) using pNPG substrate incubated for 15 mins by microplate reader based method
ATTRIBUTE MEASURED: IC50 (µM)
Could you give me the number in µM? Just the number is fine.

The examples below pair each entry with its known result.
Asked: What IC50 value was documented for this compound, COc1ccc(O)c(/C=N/NC(=O)c2ccc(-c3nc4ccccc4s3)cc2)c1 ?
Given back: 6.5

Asked: // returns reported IC50 for input O=C(N/N=C/c1ccccc1O)c1ccc(-c2nc3ccccc3s2)cc1
Given back: 5.55

Asked: // returns reported IC50 for input O=C(N/N=C\c1ccccn1)c1ccc(-c2nc3ccccc3s2)cc1
Given back: 10.2

Asked: Requested read-out: IC50. Entry: O=C(N/N=C/c1ccc(O)cc1)c1ccc(-c2nc3ccccc3s2)cc1
Given back: 11.3

New cases:
Asked: # input compound: COc1cccc(/C=N/NC(=O)c2ccc(-c3nc4ccccc4s3)cc2)c1 ; wanted: its IC50
Given back: 11.1

Asked: Any idea what its IC50 is? The compound is O=C(N/N=C/c1ccc(O)c(Br)c1)c1ccc(-c2nc3ccccc3s2)cc1
Given back: 8.07

Asked: Look at this compound and give its reported IC50. COc1ccc(/C=N/NC(=O)c2ccc(-c3nc4ccccc4s3)cc2)c(O)c1
Given back: 6.97

Asked: Entry O=C(N/N=C/c1ccc(F)cc1)c1ccc(-c2nc3ccccc3s2)cc1 : reported IC50 = ?
Given back: 7.12

Asked: Requested read-out: IC50. Entry: O=C(N/N=C/c1ccc(F)c(Br)c1)c1ccc(-c2nc3ccccc3s2)cc1
Given back: 28

Asked: Please give the measured IC50 for this compound: O=C(N/N=C/c1ccccc1)c1ccc(-c2nc3ccccc3s2)cc1
Given back: 8.05

Reference source: BindingDB's records for doi:10.1016/j.ejmech.2015.01.009
